Test system: U2932 parental
assayExplanation: cell proliferation relative to vehicle (% of vehicle); higher = less growth inhibition
testParameters: 500 nM; 72 h

molecule	testedOn	cell proliferation
COc1cc(F)c(F)c(Nc2ccc(I)cc2F)c1NS(=O)(=O)C1(C[C@H](O)CO)CC1 [Refametinib (RDEA119, Bay 86-9766)]	U2932 parental	96.2
COCCOc1ccc2c(c1)ncn2-c1ccc2cccc(N3CCC(N)CC3)c2n1	U2932 parental	90.4
O=C(O)CCNc1cc(N2CCc3ccccc3CC2)nc(-c2ccccn2)n1	U2932 parental	99.8
Cn1cc(CNCC2CCN(c3ncc(C(=O)NO)cn3)CC2)c2ccccc21	U2932 parental	0.113
Oc1ccc(Nc2nc(-c3ccc(Cl)cc3)cs2)cc1	U2932 parental	95.5

Values from the supplement of paper PMC13172266
